testedSystem: purified human plasma kallikrein (Homo sapiens (Human))
assayProtocol: Plasma kallikrein enzyme inhibition assay (chromogenic substrate S-2302)
Assay type: biochemical
assayContext: measured at 25° C. (no asterisk)
Where a name gives a salt, the structure may show the parent alone.
Ki vs 20 nM: less than gives 1.0; not less than gives 0.0.

Field: example entries. Status: answers known.
CN(C)C1CCN(c2cccc3c2CCN(C(=O)c2cnn(-c4cccc(Cl)c4F)c2)C3C(=O)Nc2ccc(OCC3CCCO3)cc2)CC1 (centres unmarked) [Example 95, TFA salt] = 1.0
CO[C@@H]1CCN(c2cccc3c2CCN(C(=O)c2cn(-c4cccc(Cl)c4F)nn2)C3C(=O)Nc2ccc(C(=O)O)cc2)C1 (mixture of isomers) [Example 84, TFA salt] = 1.0
CN1CCN(c2cccc3c2CCN(C(=O)c2cnn(-c4cccc(Cl)c4)c2)C3C(=O)Nc2ccc(C(=O)O)cc2)CC1 (centres unmarked) [Example 200, TFA salt] = 1.0
O=C(O)c1ccc(NC(=O)C2c3cccc(N4CCC(N5CCCC5=O)CC4)c3CCN2C(=O)c2cn(-c3cccc(Cl)c3F)nn2)cc1 (centres unmarked) [Example 72, TFA salt] = 1.0
Cc1nc(-c2ccc(NC(=O)C3c4cccc(N5CCC(N(C)C)CC5)c4CCN3C(=O)c3cn(-c4cccc(Cl)c4F)nn3)cc2)no1 (centres unmarked) [Example 98, bis-TFA salt] = 1.0
CN1CCC(NC(=O)c2cccc3c2CCN(C(=O)c2cn(-c4cccc(Cl)c4F)nn2)C3C(=O)Nc2ccc(C(=O)O)cc2)CC1 (centres unmarked) [Example 192, TFA salt] = 0.0

Is Ki of O=C(O)c1ccc(NC(=O)C2c3cccc(-c4ccc5cn[nH]c5c4)c3CCN2C(=O)c2cn(-c3cccc(Cl)c3F)nn2)cc1 (centres unmarked) strictly below 20 nM?
1.0

Is Ki of COC1CCN(c2cccc3c2CCN(C(=O)c2cc(-c4cccc(Cl)c4)n[nH]2)C3C(=O)Nc2ccc(C(=O)O)cc2)CC1 (racemic) [Example 311, TFA salt] strictly below 20 nM?
0.0

Is Ki of CC(C)c1nnc2n1CCN(c1cccc3c1CCN(C(=O)c1cn(-c4cccc(Cl)c4F)nn1)[C@@H]3C(=O)Nc1ccc(C(=O)O)cc1)C2 [Example 66, TFA salt] strictly below 20 nM?
1.0

Is Ki of CN1CCN(c2cccc3c2CCN(C(=O)c2cncc(-c4ccccc4)c2)C3C(=O)Nc2ccc(C(=O)O)cc2)CC1 (centres unmarked) strictly below 20 nM?
0.0

Is Ki of COc1ncccc1-c1cccc2c1CCN(C(=O)c1cn(-c3cccc(Cl)c3F)nn1)C2C(=O)Nc1ccc(C(=O)O)cc1 (centres unmarked) [Example 153, TFA salt] strictly below 20 nM?
0.0

Is Ki of O=C(O)c1ccc(NC(=O)C2c3cccc(N4CCCCC4)c3CCN2C(=O)c2cn(-c3cccc(Cl)c3F)nn2)cc1 (centres unmarked) [Example 78, TFA salt] strictly below 20 nM?
0.0

Is Ki of O=C(O)c1ccc(NC(=O)C2c3cccc(-c4cncc(F)c4)c3CCN2C(=O)c2cn(-c3cccc(Cl)c3F)nn2)cc1 (centres unmarked) [Example 35, TFA salt] strictly below 20 nM?
0.0

====

testedSystem: purified human plasma kallikrein (Homo sapiens (Human), UniProt P03952)
Sequence (P03952 391-638): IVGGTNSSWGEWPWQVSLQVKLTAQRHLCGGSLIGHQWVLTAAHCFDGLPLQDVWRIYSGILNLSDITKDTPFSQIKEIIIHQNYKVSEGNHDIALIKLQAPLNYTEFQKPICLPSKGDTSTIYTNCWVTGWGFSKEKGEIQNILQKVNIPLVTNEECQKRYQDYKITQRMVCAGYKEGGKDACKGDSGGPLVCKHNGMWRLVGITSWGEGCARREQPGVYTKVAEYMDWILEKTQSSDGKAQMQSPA
Sequence (P03952 20-390 partner): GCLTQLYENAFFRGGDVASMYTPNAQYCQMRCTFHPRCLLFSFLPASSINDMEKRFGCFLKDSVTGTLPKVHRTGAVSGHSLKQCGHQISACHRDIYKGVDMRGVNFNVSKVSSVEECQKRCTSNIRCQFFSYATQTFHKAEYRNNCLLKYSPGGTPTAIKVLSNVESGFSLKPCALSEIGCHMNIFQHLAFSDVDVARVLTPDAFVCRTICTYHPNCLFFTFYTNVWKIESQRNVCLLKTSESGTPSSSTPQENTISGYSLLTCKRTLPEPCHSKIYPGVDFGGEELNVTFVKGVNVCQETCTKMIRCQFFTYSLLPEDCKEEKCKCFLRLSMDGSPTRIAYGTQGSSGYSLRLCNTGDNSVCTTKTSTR
assayProtocol: Plasma kallikrein enzyme inhibition assay (chromogenic substrate S-2302)
Type: biochemical
assayContext: measured at 25° C. (no asterisk)
Where a name gives a salt, the structure may show the parent alone.
readoutKind: Ki (nM)
Answers are plain numbers, in nM.

CN1CCN(c2cccc3c2CCN(C(=O)c2cn(-c4cccc(Cl)c4)nn2)C3C(=O)Nc2ccc(C(=O)O)cc2)CC1 (stereo not drawn) [Example 201, TFA salt] = 4.21
O=C(O)c1ccc(NC(=O)C2c3cccc(N4CCN(C5COC5)CC4)c3CCN2C(=O)c2cn(-c3cccc(Cl)c3F)nn2)cc1 (stereo not drawn) [Example 226, TFA salt] = 7.65

Please examine the following record next.
Read the entry COC1CCN(c2cccc3c2CCN(C(=O)c2cn(-c4cccc(Cl)c4F)cn2)C3C(=O)Nc2ccc(C(=O)O)cc2)CC1 (racemic) [Example 271, TFA salt] and write its reported Ki.
7.65
